Provenance of the data: PubChem BioAssay (EPA / NIEHS)

experiment: BSK_4H_SRB: Viability Assessment in the BioMAP Diversity Plus: 4H Assay (AID 2283027); details: primary human endothelial cells (HUVEC);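 note: cells exposed to compound for 24 h before staining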
Calls of active or inactive are those of the source. Rule for the calls: active = hit-call score of the fitted dose curve at least 0.9, where 1 is the maximum; inactive = score below 0.9.
Labels: Yes for active, No for inactive

MOLECULE | CAT
CCOP(=S)(NC(C)C)Oc1ccccc1C(=O)OC(C)C (stereo not given) | No
O=[N+]([O-])c1ccc(Cl)c(Cl)c1 | No
[N-]=[N+]=[N-] | No
COC(=O)C(F)(F)C(F)(F)OC(F)(C(F)(F)F)C(F)(F)OC(F)=C(F)F (stereo not given) | No
O=C(O)C(F)(F)C(F)(F)C(=O)O | No
OCC(F)(F)OC(F)(F)C(F)(F)OC(F)(F)CO | No
O=S(=O)(F)C(F)(F)C(F)(F)C(F)(F)C(F)(F)C(F)(F)C(F)(F)C(F)(F)C(F)(F)F | No
O=C(O)C(F)(F)OC(F)(F)C(F)(F)OC(F)(F)C(=O)O | No
CC(C)(C)c1ccc(O)cc1 | No
CSC(C)(C)C=NO | No
FC(F)(F)C(F)(C(F)(F)F)C(F)(F)C(F)(F)CC1CO1 (stereo not given) | No
O=P1(N(CCCl)CCCl)NCCCO1 (stereo not given) | No
c1cc2c3c(cccc3c1)CC2 | No
CCCN(CCC)c1c([N+](=O)[O-])cc(C(C)C)cc1[N+](=O)[O-] | Yes
C=CC(=O)OCC(F)(F)C(F)F | No

---

test: ATG_NRF2_ARE_CIS: Attagene CIS-FACTORIAL HepG2 Assay for human Nuclear Factor Erythroid 2 Related Factor 2 (NFR2) response to Antioxidant Response Elements (ARE) (AID 2282992); conditions: HepG2 Attagene ARE/NRF2 reporter, transcription factor activity; actives raise or lower the signal
Calls of active or inactive are those of the source. Rule for the calls: active = hit-call score of the fitted dose curve at least 0.9, where 1 is the maximum; inactive = score below 0.9.
Labels: active, inactive

COMPOUND | CAT
O=C(O)C(F)(F)OC(F)(F)C(F)(F)OC(F)(F)F | inactive
CC1(C)CN=C(NN=C(/C=C/c2ccc(C(F)(F)F)cc2)/C=C/c2ccc(C(F)(F)F)cc2)NC1 | active
CNC(=O)Oc1ccc(N(C)C)c(C)c1 | inactive
N#Cc1cc([N+](=O)[O-])ccc1N | active
O=c1[nH]c2ccccc2c(=O)o1 | inactive
CCC1(c2ccccc2)C(=O)N=C(O)NC1=O (stereo not drawn) | inactive
O=C(O)C1C(C(=O)O)C2(Cl)C(Cl)=C(Cl)C1(Cl)C2(Cl)Cl (stereo not drawn) | inactive
CC(Cl)CN(C)C (stereo not drawn) | active
CCCCN(CC)C(=O)SCCC | inactive
CO/N=C(/C(=O)OC)c1ccccc1COc1ccccc1C | active
O=[N+]([O-])c1cc(Cl)ccc1Cl | inactive
CCCN(CCC)c1c([N+](=O)[O-])cc(C(C)C)cc1[N+](=O)[O-] | active
COP(=O)(O)OC | inactive
Nc1ccc2ccccc2c1 | inactive
CC(Cc1ccc(OCC(=O)O)cc1)NCC(O)c1csc(C(F)(F)F)n1 (stereo not drawn) | inactive
OCC(F)(F)OC(F)(F)C(F)(F)OC(F)(F)C(F)(F)OC(F)(F)CO | active
Cc1ccc(C(=O)Cl)cc1 | inactive
ClC(Cl)c1ccccc1 | inactive

---

read-out: Transforming growth factor beta 1 (TGFb1), TGFB1 (gene 7040); experiment: BSK_KF3CT_TGFb1: BioMAP Diversity Plus: KF3CT Assay for Transforming growth factor beta 1 (TGFb1) Biomarker Activity (AID 2283072); conditions: primary human keratinocytes with fibroblasts; actives raise or lower the signal
Activity calls are given as the source filed them. Rule for the calls: active = hit-call score of the fitted dose curve at least 0.9, where 1 is the maximum; inactive = score below 0.9.

MOLECULE | AC50
CCOP(=S)(OCC)SCSCC | inactive
Cc1ccc(O)cc1C | inactive
CN(C)C(=O)Cl | inactive
CCOS(=O)(=O)OCC | inactive
CCCCC(CC)COP(=O)(Oc1ccccc1)Oc1ccccc1 (centres undefined) | 5.46 µM (active)
Cc1ccc([N+](=O)[O-])cc1C | inactive
CCOP(=S)(OCC)SCn1nnc2ccccc2c1=O | inactive
ClC1=C(Cl)C2(Cl)C3C(Cl)C(Cl)CC3C1(Cl)C2(Cl)Cl (centres undefined) | 20 µM (active)
CC(Cc1ccc(OCC(=O)O)cc1)NCC(O)c1csc(C(F)(F)F)n1 (centres undefined) | inactive
